target: PPARα (Homo sapiens); construct: The reporter is ERE-βGlob-Luc-SV-Neo; assay: Crossed-curve PPAR transactivation assay (PPARα); type: cell-based; details: HeLN cells stably transfected with ERE-βGlob-Luc-SV-Neo and Gal-hPPARα; crossed curves against reference agonist, Schild regression; n.a. means not active; read-out: PPAR alpha Kd app
Sequence (Q07869 239-468 limits assumed): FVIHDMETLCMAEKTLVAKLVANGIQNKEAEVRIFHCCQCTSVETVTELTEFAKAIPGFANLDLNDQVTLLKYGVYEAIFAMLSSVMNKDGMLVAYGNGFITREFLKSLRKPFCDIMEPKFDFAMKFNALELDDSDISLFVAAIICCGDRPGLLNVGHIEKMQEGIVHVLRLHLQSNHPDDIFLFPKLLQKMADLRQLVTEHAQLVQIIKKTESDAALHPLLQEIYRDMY
observation-type: Kd (nM)

input-smiles: CCCCCCCNC(=O)N(C)c1cccc(-c2ccc(C[C@H](Nc3ccccc3C(=O)c3ccccc3)C(=O)NCCCCC)cc2)c1
obs-value: 2000

input-smiles: CCCCCCCNC(=O)N(C)c1cccc(-c2ccc(C[C@H](Nc3ccccc3C(=O)c3ccccc3)C(=O)NCCNC(C)=O)cc2)c1
obs-value: 2000

input-smiles: CCCCCCCNC(=O)N(C)c1cccc(-c2ccc(C[C@H](Nc3ccccc3C(=O)c3ccccc3)C(=O)N3CCC(C)CC3)cc2)c1
obs-value: 2000

input-smiles: CN(Cc1cccc(-c2ccc(C[C@H](Nc3ccccc3C(=O)c3ccccc3)C(=O)O)cc2)c1)C(=O)c1ccccc1
obs-value: 2000

input-smiles: CCCCCCCNC(=O)N(C)c1cccc(-c2ccc(C[C@H](Nc3ccccc3C(=O)c3ccccc3)C(=O)N(C)CCc3ccccc3)cc2)c1
obs-value: 4000
